Assay: protein stability index of a GFP-peptide fusion (GPS, HEK-293T) (PSI 1-6); higher = more stable;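 also: 24-mer peptide tiles fused after GFP, lentivirally expressed, FACS-sorted into six equal bins by GFP/DsRed ratio, decoded by Illumina sequencing, PSI is the read-weighted mean bin number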
Details: treatment: MLN4924 1 uM, 8 h; c terminus: a fixed tail appended
Endpoint: protein stability index

- Residue codes: "NSALKDKEDQFGRTPLMYCVLADR [INVS]"
  Value measured: 3.23
- Residue codes: "SAAHEVELQRQKEAEKLERQLALP [NOP53]"
  Value measured: 5.19
- Residue codes: "FSIPPTNHEIMPGGSVNITCVAVG [PTPRD]"
  Value measured: 2.06
- Residue codes: "YGGRSVAPQNSFSAKLAPHYFHSI [KCNK9]"
  Value measured: 2.3
- Residue codes: "EGMDFHRFYFENLLAKNSKPIHTT [CAMK2B]"
  Value measured: 2.49
- Residue codes: "KEAKTKYPNYEFISDNSISWSAGL [FUT8]"
  Value measured: 2.95
- Residue codes: "NFSNYYVAHPPVTYSQPYPTWLPC [TENT5C]"
  Value measured: 2.17
- Residue codes: "SGAEGHSHSCYHDTRSGFWYVCRT [TRIM35]"
  Value measured: 2.64
- Residue codes: "MLQRAIAYQHSGHLESKDINQEEL [C10orf62]"
  Value measured: 4.14
- Residue codes: "LIWVVGPVLAVVFIICIVIAILLY [PTPRD]"
  Value measured: 2.15
- Residue codes: "EKKLFECLTCGKSFRQGMHLTRHQ [ZNF263]"
  Value measured: 2.27
- Residue codes: "RCPSSSLHMSQRERTWPPPAMSPY [C22orf15]"
  Value measured: 2.9
- Residue codes: "WELVVLGKLKWNLAAVTPHDFIEH [CCND2]"
  Value measured: 2.62

---

Test: protein stability index of a GFP-peptide fusion (GPS, HEK-293T) (PSI 1-6); higher = more stable
Settings: treatment: MLN4924 1 uM, 8 h; c terminus: a fixed tail appended
# label = true if protein stability index >= 3 else false

- Residue codes: "LRLFGRVLERAACLRRCKRTLPAF [P3H4]"
  Label: "false"
- Residue codes: "HHCDDHLSLYQLSLERGTALFAQV [RSAD1]"
  Label: "false"
- Residue codes: "HFLENLDKSRKGELLKKSDLQKDF [PRIM1]"
  Label: "true"
- Residue codes: "RVAAAAGSGPSPPGSPGHDRERQP [PI4K2A]"
  Label: "true"
- Residue codes: "DKSDQSLPNASADSLGGSQEMVQR [TRAF3IP2]"
  Label: "true"
- Residue codes: "FQMVLEGGVCCTVTLNFNVPGEFK [GFOD1]"
  Label: "true"
- Residue codes: "IPPKEFHFRHPKRSVSLSMRKSGA [BNIP3L]"
  Label: "true"
- Residue codes: "LKKFLYNFDNPWNFQNIPKETELP [MIA2]"
  Label: "false"
- Residue codes: "NNVVPIHVPPTTENKPKVQCCQNI [RAB11A]"
  Label: "true"
- Residue codes: "TTGSKELDKLLQGGIETGSITEMF [RAD51]"
  Label: "true"
- Residue codes: "PRETLCTELVLSDCMLSEEGATLL [LRRC45]"
  Label: "true"
- Residue codes: "YRTVVRPTYKVMYKIVTAREWRCC [EMID1]"
  Label: "false"
- Residue codes: "DSLWHRSDSAPRNKISRFQAPISA [MFF]"
  Label: "true"
- Residue codes: "HVPLQRLSLLVHNVSVMHKSLDNM [FBXO33]"
  Label: "false"
- Residue codes: "HLAVDKNTTCVGRYPVCKFPSLQV [FEM1C]"
  Label: "false"
- Residue codes: "DDTETVPSEQSHASGKLRKKKKKQ [TCF25]"
  Label: "true"
- Residue codes: "LPCFNGRVVSWLVSAEGSHPDPAP [DVL3]"
  Label: "false"
- Residue codes: "ADGVKPQTNSTKNSAAATSPKGTL [CAMK2B]"
  Label: "true"
- Residue codes: "DSEEPVSTHQEAENEKDRADQTVL [CHGB]"
  Label: "true"
- Residue codes: "EKGILTTEKQNFLLFDMTTHPVTN [GOLPH3L]"
  Label: "true"
- Residue codes: "PTICMAYLMKTKQFRLKEAFDYIK [DUSP5]"
  Label: "false"
- Residue codes: "MPATPSLKVVHELPACTLCAGPLE [TRIM15]"
  Label: "true"
- Residue codes: "SGRPHLPGKKKIRWDPVRRRFIQS [KLHDC10]"
  Label: "true"
- Residue codes: "HNRVSKEDEDIYKLRHDLKKTSIT [PLK2]"
  Label: "true"
- Residue codes: "RFEEPKGPPARQEDSKELRALRKM [CBY2]"
  Label: "true"
- Residue codes: "TNLVLPSNGSMHNYCPQQTKITSA [EDNRA]"
  Label: "true"
- Residue codes: "RFGVRPKVTGYLISYSSMLGAVAG [MFSD9]"
  Label: "false"
- Residue codes: "SFWNDCISSGLRGCMLIELALRGR [GOLPH3]"
  Label: "false"
- Residue codes: "FLKKSQLTEHKRIHTGKKPHVCSL [ZNF649]"
  Label: "false"
- Residue codes: "KKEESGRERKKNWGGQEDREPAGR [PBXIP1]"
  Label: "true"
- Residue codes: "MINLRRLLLSHIHASSYISPEKEE [PRAME]"
  Label: "false"
- Residue codes: "TDGDHNVYPRPPEPREFSSRNFGV [ZC2HC1C]"
  Label: "true"
- Residue codes: "AVVQLYLALPPGAEHWTKEHCGAV [WAS]"
  Label: "false"
- Residue codes: "DFDEEYFSNTSELAKDFIRRLLVK [DAPK3]"
  Label: "true"
- Residue codes: "SPWADGTPCGPAQACMGGRCLHMD [ADAMTS4]"
  Label: "true"
- Residue codes: "RELGVWRSLLRLRATRAGAAEEPG [C2CD2L]"
  Label: "true"
- Residue codes: "VWDLNMEARPIETYQVHDYLRSKL [PPP2R2C]"
  Label: "false"
- Residue codes: "MSKLLKRQNDILQVVSQGWKYFKG [CD207]"
  Label: "false"
- Residue codes: "EQLLDVKLALDMEISAYRKLLQGE [LMNB1]"
  Label: "true"
- Residue codes: "AASPGEAPAASEGAAAPATPTPVA [SNAP91]"
  Label: "true"
- Residue codes: "HVTVENVQELLPAACLLQLKGVKQ [KLHL12]"
  Label: "true"
- Residue codes: "YSHLGGIDYKTTTILLDGQRVKLK [RAB40A]"
  Label: "true"
- Residue codes: "FDFERSGLQHAPEPDAADGPYDPN [SMAD6]"
  Label: "true"
- Residue codes: "VFSDTATPDIKSHYAFRIFDFDDD [CIB1]"
  Label: "true"
- Residue codes: "AALNALQPPEFRNESSLASTLKTL [VMA21]"
  Label: "true"
- Residue codes: "IRAAKGLDQALKEGGKLPPPPPPS [ZC2HC1A]"
  Label: "true"
- Residue codes: "GLRLRLPRRESLLRGLCRPLRPLL [C6orf223]"
  Label: "false"
- Residue codes: "PVELYTAFQHTPTSITLTASRVSK [KMT2E]"
  Label: "true"
- Residue codes: "SCEEVAASSASLEPMWSGSTMRRM [EMID1]"
  Label: "true"
- Residue codes: "TDGRSPRRSRDPGYDHLWDETLSS [PLEKHN1]"
  Label: "true"
- Residue codes: "SGATTTAPSLSGKGNPEEEDVDTS [CTNNB1]"
  Label: "true"
